conditions: in methanol, 308.15 K

Smi | solubility (mole fraction)
CCc1nc(N)nc(N)c1-c1ccc(Cl)cc1 | 0.00237

----------
conditions: in n-butanol, 303.15 K

Smi | solubility (mole fraction)
CCc1nc(N)nc(N)c1-c1ccc(Cl)cc1 | 0.00192

----------
conditions: in isopropyl acetate, 278.15 K
Quantity Name: solubility (mole fraction)

Smi | Observed Value
CCc1nc(N)nc(N)c1-c1ccc(Cl)cc1 | 0.000583

----------
conditions: in methanol, 298.15 K

Smi | solubility (mole fraction)
CCc1nc(N)nc(N)c1-c1ccc(Cl)cc1 | 0.00176

----------
conditions: in methyl acetate, 298.15 K

Smi | solubility (mole fraction)
CCc1nc(N)nc(N)c1-c1ccc(Cl)cc1 | 0.00105
